- Tested on: Human immunodeficiency virus 1
- procedure-text: Antiviral activity against HIV1 subtype B-NL4-3 infected in 2 hrs pretreated human MT2 cells assessed as inhibition of multicycle replication measured on day 5 postinfection by RT SPA
- Format: functional, organism-based
- measurement-setup: Human immunodeficiency virus 1, subtype B-NL4-3, MT2
readout-label: EC50 (nM)
Record the value in nM, omitting the unit from your answer.

Field request: EC50 | item: C=C1[C@H](CO)[C@@H](O)C[C@@H]1n1cnc2c(=O)[nH]c(N)nc21.O [ENTECAVIR]
1400

###

- Test system: Human immunodeficiency virus 1
- procedure-text: microbe, parasite or virus in culture
- measurement-setup: Human immunodeficiency virus 1, NL4-3, MT2, 120 h
- Description: Antiviral activity against 0.01 MOI wild type HIV1 NL4-3 infected in human MT2 cells measured after 5 days by RT SPA
Please respond with reported EC50 for every item in the list.
Record the value in nM, omitting the unit from your answer.

Field request: EC50 | item: C=C1[C@H](CO)[C@@H](O)C[C@@H]1n1cnc2c(=O)[nH]c(N)nc21.O [ENTECAVIR]
95

Field request: EC50 | item: Nc1ccn([C@@H]2CS[C@H](CO)O2)c(=O)n1 [LAMIVUDINE]
63

Field request: EC50 | item: Cc1cn([C@H]2C[C@H](N=[N+]=[N-])[C@@H](CO)O2)c(=O)[nH]c1=O [ZIDOVUDINE]
8

###

- procedure-text: Cmax in human at 1 mg, po
- measurement-setup: in vivo
readout-label: Cmax (nM)
Record the value in nM, omitting the unit from your answer.

Field request: Cmax | item: "C=C1[C@H](CO)[C@@H](O)C[C@@H]1n1cnc2c(=O)[nH]c(N)nc21.O"
30

###

- Test system: Human immunodeficiency virus 1
- procedure-text: microbe, parasite or virus in culture
- measurement-setup: Human immunodeficiency virus 1, NL-RLuc, MT2, 120 h
- Description: Antiviral activity against pseudotype HIV1 NL-RLuc infected in human MT2 cells measured on day 5 postinfection by luciferase reporter gene assay
Please respond with reported pEC50 for every item in the list.
pEC50 is defined as minus the log10 of a concentration measured in mol/L.

Field request: pEC50 | item: "Cc1cn([C@H]2C[C@H](N=[N+]=[N-])[C@@H](CO)O2)c(=O)[nH]c1=O"
7.80

Field request: pEC50 | item: "C=C1[C@H](CO)[C@@H](O)C[C@@H]1n1cnc2c(=O)[nH]c(N)nc21.O"
5.89

Field request: pEC50 | item: "Nc1ccn([C@@H]2CS[C@H](CO)O2)c(=O)n1"
5.94

###

- Test system: Human immunodeficiency virus 1
- procedure-text: Antiviral activity against HIV1 infected in human CEM-SS cells after 10 days by MTT assay
- Format: functional, organism-based
- measurement-setup: Human immunodeficiency virus 1, CEM-SS, 240 h
pEC50: −log10 of the molar value.
readout-label: pEC50

Field request: pEC50 | item: C=C1[C@H](CO)[C@@H](O)C[C@@H]1n1cnc2c(=O)[nH]c(N)nc21.O [ENTECAVIR]
< 5.00

###

- System: Human immunodeficiency virus 1
- procedure-text: microbe, parasite or virus in culture
- measurement-setup: Human immunodeficiency virus 1, NL4-3, MT2
- Description: Antiviral activity against 0.02 MOI wild type HIV1 NL4-3 infected in 2 hr-pretreated human MT2 cells measured after 5 days by MTS assay
readout-label: pEC50
pEC50 is defined as minus the log10 of a concentration measured in mol/L.

Field request: pEC50 | item: "Nc1ccn([C@@H]2CS[C@H](CO)O2)c(=O)n1"
5.61

Field request: pEC50 | item: "Cc1cn([C@H]2C[C@H](N=[N+]=[N-])[C@@H](CO)O2)c(=O)[nH]c1=O"
6.65

###

- System: Human immunodeficiency virus 1
- procedure-text: microbe, parasite or virus in culture
- measurement-setup: Human immunodeficiency virus 1, subtype B-3B, MT2
- Description: Antiviral activity against HIV1 subtype B-3B infected in 1 hr-pretreated human MT2 cells assessed as inhibition of multicycle replication measured on day 5 postinfection by RT SPA
Please respond with reported EC50 for every item in the list.
Record the value in nM, omitting the unit from your answer.

Give recorded EC50 with Human immunodeficiency virus 1 for the following compound: "Cc1cn([C@H]2C[C@H](N=[N+]=[N-])[C@@H](CO)O2)c(=O)[nH]c1=O"
1.2

Give recorded EC50 with Human immunodeficiency virus 1 for the following compound: "C=C1[C@H](CO)[C@@H](O)C[C@@H]1n1cnc2c(=O)[nH]c(N)nc21.O"
81

Give recorded EC50 with Human immunodeficiency virus 1 for the following compound: "Nc1ccn([C@@H]2CS[C@H](CO)O2)c(=O)n1"
47

###

- procedure-text: Cmax in human blood
- Assay type: ADME, organism-based
readout-label: Cmax
Units required after the number.

Field request: Cmax | item: "C=C1[C@H](CO)[C@@H](O)C[C@@H]1n1cnc2c(=O)[nH]c(N)nc21.O"
30 nM

###

- System: Human immunodeficiency virus 1
- procedure-text: Antiviral activity against 0.006 MOI HIV1 NL4-3 infected in human MT2 cells measured after 5 days by RT SPA
- Format: functional, organism-based
- measurement-setup: Human immunodeficiency virus 1, NL4-3, MT2, 120 h
readout-label: pEC50
pEC50 is defined as minus the log10 of a concentration measured in mol/L.

Field request: pEC50 | item: "C=C1[C@H](CO)[C@@H](O)C[C@@H]1n1cnc2c(=O)[nH]c(N)nc21.O"
6.82

###

- System: Human immunodeficiency virus 1
- procedure-text: microbe, parasite or virus in culture
- measurement-setup: Human immunodeficiency virus 1, NL4-3, MT2
- Description: Antiviral activity against 0.05 MOI wild type HIV1 NL4-3 infected in 2 hr-pretreated human MT2 cells measured after 5 days by RT SPA
Please respond with reported EC50 for every item in the list.
Record the value in µM, omitting the unit from your answer.

Field request: EC50 | item: "Nc1ccn([C@@H]2CS[C@H](CO)O2)c(=O)n1"
2.47

Field request: EC50 | item: "Cc1cn([C@H]2C[C@H](N=[N+]=[N-])[C@@H](CO)O2)c(=O)[nH]c1=O"
0.249

###

- System: Human immunodeficiency virus 1
- procedure-text: microbe, parasite or virus in culture
- measurement-setup: Human immunodeficiency virus 1, subtype B-ASM 044, PBMC
- Description: Antiviral activity against HIV1 subtype B-ASM 044 infected in 1 hr-pretreated PBMC cells assessed as inhibition of p24 antigen production measured on day 5 postinfection by ELISA
Please respond with reported EC50 for every item in the list.
Record the value in nM, omitting the unit from your answer.

Give recorded EC50 with Human immunodeficiency virus 1 for the following compound: "Nc1ccn([C@@H]2CS[C@H](CO)O2)c(=O)n1"
40

Give recorded EC50 with Human immunodeficiency virus 1 for the following compound: "Cc1cn([C@H]2C[C@H](N=[N+]=[N-])[C@@H](CO)O2)c(=O)[nH]c1=O"
16

Give recorded EC50 with Human immunodeficiency virus 1 for the following compound: "C=C1[C@H](CO)[C@@H](O)C[C@@H]1n1cnc2c(=O)[nH]c(N)nc21.O"
26

###

Please respond with reported EC50 for every item in the list.
- System: Human immunodeficiency virus 1
- procedure-text: microbe, parasite or virus in culture
- measurement-setup: Human immunodeficiency virus 1, NL4-3, MT2
- Description: Antiviral activity against 0.005 MOI HIV1 NL4-3 harboring wild type RT infected in human MT2 cells
Record the value in µM, omitting the unit from your answer.

Field request: EC50 | item: "C=C1[C@H](CO)[C@@H](O)C[C@@H]1n1cnc2c(=O)[nH]c(N)nc21.O"
0.056

Field request: EC50 | item: "Cc1cn([C@H]2C[C@H](N=[N+]=[N-])[C@@H](CO)O2)c(=O)[nH]c1=O"
0.01

Field request: EC50 | item: "Nc1ccn([C@@H]2CS[C@H](CO)O2)c(=O)n1"
0.04

###

- Test system: Human immunodeficiency virus 1
- procedure-text: microbe, parasite or virus in culture
- measurement-setup: Human immunodeficiency virus 1, NL4-3, MT2
- Description: Antiviral activity against 0.01 MOI wild type HIV1 NL4-3 infected in 2 hr-pretreated human MT2 cells measured after 5 days by MTS assay
readout-label: pEC50
pEC50 is defined as minus the log10 of a concentration measured in mol/L.

Field request: pEC50 | item: "Cc1cn([C@H]2C[C@H](N=[N+]=[N-])[C@@H](CO)O2)c(=O)[nH]c1=O"
6.84

Field request: pEC50 | item: "Nc1ccn([C@@H]2CS[C@H](CO)O2)c(=O)n1"
5.77

###

Please respond with reported EC50 for every item in the list.
- System: Human immunodeficiency virus 1
- procedure-text: microbe, parasite or virus in culture
- measurement-setup: Human immunodeficiency virus 1, subtype B-ASM 034, PBMC
- Description: Antiviral activity against HIV1 subtype B-ASM 034 infected in 1 hr-pretreated PBMC cells assessed as inhibition of p24 antigen production measured on day 5 postinfection by ELISA
Record the value in nM, omitting the unit from your answer.

Field request: EC50 | item: "Nc1ccn([C@@H]2CS[C@H](CO)O2)c(=O)n1"
71

Field request: EC50 | item: "C=C1[C@H](CO)[C@@H](O)C[C@@H]1n1cnc2c(=O)[nH]c(N)nc21.O"
109

Field request: EC50 | item: "Cc1cn([C@H]2C[C@H](N=[N+]=[N-])[C@@H](CO)O2)c(=O)[nH]c1=O"
18

###

- System: Human immunodeficiency virus 1
- procedure-text: Antiviral activity against pseudotype HIV1 LAI-Luc infected in human PBMC measured on day 3 postinfection by luciferase reporter gene assay
- Format: functional, organism-based
- measurement-setup: Human immunodeficiency virus 1, LAI-Luc, 72 h
pEC50: −log10 of the molar value.
readout-label: pEC50

Field request: pEC50 | item: "C=C1[C@H](CO)[C@@H](O)C[C@@H]1n1cnc2c(=O)[nH]c(N)nc21.O"
< 5.60

The reported measurements were obtained from ChEMBL document CHEMBL1255337.
